Target: P-gp (Homo sapiens, UniProt P08183)
Sequence (P08183 whole entry): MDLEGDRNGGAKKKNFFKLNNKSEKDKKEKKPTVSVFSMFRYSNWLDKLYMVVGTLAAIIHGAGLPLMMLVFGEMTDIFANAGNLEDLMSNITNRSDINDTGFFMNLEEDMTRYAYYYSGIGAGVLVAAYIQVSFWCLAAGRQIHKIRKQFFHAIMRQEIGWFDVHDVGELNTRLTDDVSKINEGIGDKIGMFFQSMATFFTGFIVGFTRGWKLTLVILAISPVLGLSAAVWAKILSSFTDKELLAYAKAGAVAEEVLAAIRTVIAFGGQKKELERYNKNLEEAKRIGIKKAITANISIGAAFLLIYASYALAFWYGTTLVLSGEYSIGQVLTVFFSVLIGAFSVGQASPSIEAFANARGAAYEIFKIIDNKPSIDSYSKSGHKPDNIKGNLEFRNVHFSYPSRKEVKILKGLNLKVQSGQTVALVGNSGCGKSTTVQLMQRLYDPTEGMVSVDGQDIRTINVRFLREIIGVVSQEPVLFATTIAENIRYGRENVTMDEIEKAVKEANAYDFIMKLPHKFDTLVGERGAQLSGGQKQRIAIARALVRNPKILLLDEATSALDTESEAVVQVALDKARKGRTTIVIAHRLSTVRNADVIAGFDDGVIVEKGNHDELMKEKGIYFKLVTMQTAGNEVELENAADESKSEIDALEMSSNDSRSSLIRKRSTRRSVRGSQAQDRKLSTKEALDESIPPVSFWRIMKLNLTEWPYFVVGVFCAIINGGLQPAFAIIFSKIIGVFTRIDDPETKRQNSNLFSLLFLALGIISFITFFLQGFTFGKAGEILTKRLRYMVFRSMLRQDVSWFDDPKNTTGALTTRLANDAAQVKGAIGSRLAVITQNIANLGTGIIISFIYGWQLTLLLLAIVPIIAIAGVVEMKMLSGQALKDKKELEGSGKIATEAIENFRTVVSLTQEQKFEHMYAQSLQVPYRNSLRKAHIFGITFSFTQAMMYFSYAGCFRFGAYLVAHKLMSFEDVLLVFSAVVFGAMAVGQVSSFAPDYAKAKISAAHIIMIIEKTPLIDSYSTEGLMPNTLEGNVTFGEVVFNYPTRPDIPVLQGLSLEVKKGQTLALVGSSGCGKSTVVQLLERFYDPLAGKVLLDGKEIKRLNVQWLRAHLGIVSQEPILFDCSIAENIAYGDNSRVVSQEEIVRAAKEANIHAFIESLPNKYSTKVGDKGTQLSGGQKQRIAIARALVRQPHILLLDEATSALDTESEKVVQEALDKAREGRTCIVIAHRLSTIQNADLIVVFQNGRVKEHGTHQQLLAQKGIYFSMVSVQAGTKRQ
Test: Intracellular accumulation and basal to apical transport in Caco-2 cells with/without valspodar
Details: Caco-2 cells, valspodar
Procedure: The intracellular accumulation and transcellular, basal to apical transport experiments were performed as previously described in monolayers of polarized single-transfected (MDCK-OCT2, MDCK-MATE1) and double-transfected (MDCK-OCT2-MATE1) MDCK cells, MDCK control cells (MDCK-VC), or Caco-2 cells.[22] In brief, cell monolayers were grown in cell culture inserts on porous membranes. […]

smiles_code	target_or_system	In Vitro P-gp (substrate class)
NCCc1c[nH]c2ccc(O)cc12	P-gp (Homo sapiens, UniProt P08183)	-
NCCc1ccc(O)cc1	P-gp (Homo sapiens, UniProt P08183)	-
C[N+](C)(C)CCCCC(=O)[O-]	P-gp (Homo sapiens, UniProt P08183)	-

----------
Tested on: human OCT2 and MATE1
Assay: Intracellular accumulation and transcellular transport in double-transfected MDCK-OCT2-MATE1 monolayers
Format: in vitro ADME
Conditions: 10 μM basal, 60 minutes
result_type: Intracellular concentration in MDCK-OCT2-MATE1 cells vs MDCK-VC cells

smiles_code	result
NCCc1c[nH]c2ccc(O)cc12	significantly higher
Cn1cnc(CCN)c1	significantly higher

----------
Target: MATE1 (Homo sapiens)
Experiment: Uptake assay in HEK-MATE1 vs HEK-VC cells (pH 8.0)
Conditions: summary of in vitro uptake/transport results
Description: Transport experiments were performed 48 hours after seeding. The intracellular background of all 5 compounds in HEK cells at the beginning of the uptake experiments was investigated 48 hours after seeding without incubation with transport buffer (ie, 0 minutes). […] Then, cells were lysed with ice-cold 80% MeOH containing the aforementioned recovery standards. In addition, the impact of a 5-minute incubation period with transport buffer without added substance was investigated.

smiles_code	In Vitro MATE1 (substrate class)
Cn1cnc(CCN)c1	++
NCCc1ccc(O)cc1	++
C[N+](C)(C)CCCCC(=O)[O-]	+
NCCc1c[nH]c2ccc(O)cc12	++

----------
Target: MATE1 (Homo sapiens)
Sequence (Q96FL8 1-570): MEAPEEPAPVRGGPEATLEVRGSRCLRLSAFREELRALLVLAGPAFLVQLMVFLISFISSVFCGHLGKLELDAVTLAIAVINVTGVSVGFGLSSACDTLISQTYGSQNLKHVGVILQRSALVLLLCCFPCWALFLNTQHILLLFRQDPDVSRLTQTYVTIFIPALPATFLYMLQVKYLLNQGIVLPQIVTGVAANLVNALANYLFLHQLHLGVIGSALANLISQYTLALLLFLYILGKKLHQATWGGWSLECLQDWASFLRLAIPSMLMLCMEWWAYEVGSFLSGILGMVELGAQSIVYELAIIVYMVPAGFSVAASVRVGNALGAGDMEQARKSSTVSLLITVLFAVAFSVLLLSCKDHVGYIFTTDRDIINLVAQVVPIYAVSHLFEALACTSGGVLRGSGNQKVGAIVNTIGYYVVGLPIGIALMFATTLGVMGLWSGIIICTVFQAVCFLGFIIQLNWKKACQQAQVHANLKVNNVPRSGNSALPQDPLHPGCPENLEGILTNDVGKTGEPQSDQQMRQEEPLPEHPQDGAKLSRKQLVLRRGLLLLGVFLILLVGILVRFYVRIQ
Experiment: Concentration-dependent transport in HEK-MATE1 cells (Km, Vmax)
Type: in vitro ADME
Design: expressed in transfected cells; host or cells: HEK293 (HEK-MATE1)
Details: human, HEK-MATE1 cells, HEK-MATE1 net uptake, read-out: Km for MATE1-mediated transport
# key: entry, value: Km at 5 min

compound	Km at 5 min, µM
NCCc1c[nH]c2ccc(O)cc12 [Serotonin, serotonin]	52.7
Cn1cnc(CCN)c1 [1-Methylhistamine, 1-methylhistamine]	307

----------
Molecular target: human OATP1B1 (Homo sapiens)
Construct: expressed in transfected cells; host or cells: HEK293 (HEK-OATP1B1)
Sequence (Q9Y6L6 1-691): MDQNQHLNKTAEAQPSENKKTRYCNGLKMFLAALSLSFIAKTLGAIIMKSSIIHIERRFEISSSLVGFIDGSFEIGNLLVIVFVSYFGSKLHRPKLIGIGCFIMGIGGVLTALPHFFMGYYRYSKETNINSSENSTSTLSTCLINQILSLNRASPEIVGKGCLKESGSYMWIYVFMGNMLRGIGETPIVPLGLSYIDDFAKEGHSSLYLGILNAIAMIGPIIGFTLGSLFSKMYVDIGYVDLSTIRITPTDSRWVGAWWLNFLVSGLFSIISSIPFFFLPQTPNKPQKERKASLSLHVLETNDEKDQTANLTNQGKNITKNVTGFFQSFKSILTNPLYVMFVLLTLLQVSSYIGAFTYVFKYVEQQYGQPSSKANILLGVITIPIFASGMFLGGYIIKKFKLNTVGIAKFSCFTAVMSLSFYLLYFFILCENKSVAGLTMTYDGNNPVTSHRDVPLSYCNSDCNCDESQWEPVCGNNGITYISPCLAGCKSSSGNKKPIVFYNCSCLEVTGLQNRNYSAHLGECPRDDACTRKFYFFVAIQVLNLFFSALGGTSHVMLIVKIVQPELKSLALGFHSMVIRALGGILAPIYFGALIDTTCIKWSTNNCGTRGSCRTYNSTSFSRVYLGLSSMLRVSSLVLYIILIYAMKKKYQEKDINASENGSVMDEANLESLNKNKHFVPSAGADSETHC
Assay: Uptake assay in HEK-OATP1B1 vs HEK-VC cells
Format: in vitro ADME

compound	In Vitro OATP1B1 (substrate class)
Cn1cnc(CCN)c1 [1-Methylhistamine, 1-methylhistamine]	-
NCCc1c[nH]c2ccc(O)cc12 [Serotonin, serotonin]	-

----------
Target: UniProt Q96FL8
Sequence (Q96FL8 1-570): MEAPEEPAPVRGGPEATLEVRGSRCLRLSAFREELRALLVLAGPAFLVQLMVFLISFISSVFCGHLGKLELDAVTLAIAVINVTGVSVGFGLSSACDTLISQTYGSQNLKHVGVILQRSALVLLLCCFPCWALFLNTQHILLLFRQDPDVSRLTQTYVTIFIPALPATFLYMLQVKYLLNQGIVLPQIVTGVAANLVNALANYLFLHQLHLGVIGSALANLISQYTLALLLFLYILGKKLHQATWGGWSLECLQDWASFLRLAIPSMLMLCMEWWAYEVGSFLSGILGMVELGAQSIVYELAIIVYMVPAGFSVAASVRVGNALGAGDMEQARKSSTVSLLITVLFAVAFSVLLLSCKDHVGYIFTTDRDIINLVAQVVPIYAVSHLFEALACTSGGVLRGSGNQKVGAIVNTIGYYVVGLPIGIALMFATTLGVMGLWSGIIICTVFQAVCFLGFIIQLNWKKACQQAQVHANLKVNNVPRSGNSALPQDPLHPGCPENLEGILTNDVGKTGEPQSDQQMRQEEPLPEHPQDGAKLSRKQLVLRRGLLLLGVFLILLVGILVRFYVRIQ
Assay: Uptake assay in HEK-MATE1 vs HEK-VC cells (pH 8.0)
Conditions: 10 and 100 μM substrate, 5 minutes, pH 8.0
result_type: Uptake in HEK-MATE1 cells compared to HEK-VC cells (in words)

smiles_code	result
NCCc1c[nH]c2ccc(O)cc12	significantly higher
NCCc1ccc(O)cc1	significantly higher
Cn1cnc(CCN)c1	significantly higher

----------
Target: P-gp (Homo sapiens, UniProt P08183)
Assay: Intracellular accumulation and basal to apical transport in Caco-2 cells with/without valspodar
Details: 10 μM substrate, 240 minutes, valspodar 2 μM
result_type: Effect of valspodar on basal to apical translocation in Caco-2 cells

smiles_code	result
NCCc1c[nH]c2ccc(O)cc12	no significant effect
C[N+](C)(C)CCCCC(=O)[O-]	no significant effect
NCCc1ccc(O)cc1	no significant effect

----------
Target: human OATP1B3 (Homo sapiens)
Construct: expressed in transfected cells; host or cells: HEK293 (HEK-OATP1B3)
Sequence (Q9NPD5 whole entry): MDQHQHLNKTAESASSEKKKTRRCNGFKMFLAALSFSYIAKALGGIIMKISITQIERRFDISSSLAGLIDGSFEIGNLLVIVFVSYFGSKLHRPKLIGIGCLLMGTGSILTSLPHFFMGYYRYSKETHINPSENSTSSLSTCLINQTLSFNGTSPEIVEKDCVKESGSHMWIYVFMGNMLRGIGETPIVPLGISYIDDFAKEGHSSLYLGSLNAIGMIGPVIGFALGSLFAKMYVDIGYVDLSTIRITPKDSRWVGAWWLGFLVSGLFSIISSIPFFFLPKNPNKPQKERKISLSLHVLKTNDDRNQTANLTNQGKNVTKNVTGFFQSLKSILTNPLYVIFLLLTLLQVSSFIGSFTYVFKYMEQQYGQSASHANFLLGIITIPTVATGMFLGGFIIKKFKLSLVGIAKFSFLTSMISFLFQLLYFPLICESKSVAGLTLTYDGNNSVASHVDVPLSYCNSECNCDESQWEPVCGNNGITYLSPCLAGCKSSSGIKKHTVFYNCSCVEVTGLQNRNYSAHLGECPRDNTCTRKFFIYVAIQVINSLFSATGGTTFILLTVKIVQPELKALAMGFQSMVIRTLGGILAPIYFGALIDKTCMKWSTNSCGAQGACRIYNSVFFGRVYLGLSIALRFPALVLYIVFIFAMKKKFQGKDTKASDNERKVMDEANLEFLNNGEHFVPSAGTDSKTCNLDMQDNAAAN
Assay: Uptake assay in HEK-OATP1B3 vs HEK-VC cells
Assay type: in vitro ADME

smiles_code	In Vitro OATP1B3 (substrate class)
NCCc1ccc(O)cc1	-
Cn1cnc(CCN)c1	-
NCCc1c[nH]c2ccc(O)cc12	-

----------
Target: human OAT3 (Homo sapiens, UniProt Q8TCC7)
Sequence (Q8TCC7 whole entry): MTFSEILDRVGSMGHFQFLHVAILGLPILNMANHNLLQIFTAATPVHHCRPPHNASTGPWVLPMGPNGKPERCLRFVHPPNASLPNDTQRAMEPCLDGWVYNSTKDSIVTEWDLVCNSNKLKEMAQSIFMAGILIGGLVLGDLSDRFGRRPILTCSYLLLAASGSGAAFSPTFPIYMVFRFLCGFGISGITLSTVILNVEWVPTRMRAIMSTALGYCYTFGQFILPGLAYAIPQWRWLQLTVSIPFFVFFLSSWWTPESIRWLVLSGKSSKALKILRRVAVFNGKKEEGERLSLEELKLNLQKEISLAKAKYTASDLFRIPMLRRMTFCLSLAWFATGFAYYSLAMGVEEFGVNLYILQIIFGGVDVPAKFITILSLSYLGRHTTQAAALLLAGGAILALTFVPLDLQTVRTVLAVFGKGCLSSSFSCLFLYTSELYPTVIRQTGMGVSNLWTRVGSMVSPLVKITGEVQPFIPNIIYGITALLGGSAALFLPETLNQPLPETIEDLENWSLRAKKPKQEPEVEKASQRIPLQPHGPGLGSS
Test: Uptake assay in HEK-OAT3 vs HEK-VC cells
Settings: HEK cells

smiles_code	target_or_system	In Vitro OAT3 (substrate class)
C[N+](C)(C)CCCCC(=O)[O-]	human OAT3 (Homo sapiens, UniProt Q8TCC7)	-
Cn1cnc(CCN)c1	human OAT3 (Homo sapiens, UniProt Q8TCC7)	-

Sourced from paper PMC12799524
